System: Purkinje fiber of the right ventricular free wall (myocardial action potential)
Experiment: Influence on myocardial action potential duration time (APD75), isolated right ventricular free wall, microelectrode in Purkinje fiber
Assay type: cell-based, dog
Conditions: Canis lupus familiaris, 20 min, 1.0 μg/ml, 20 minutes' incubation, (B-A)/A×100, read-out: APD75 (%)
Where a name gives a salt, the structure may show the parent alone.
Assign 1 whenever activation at 1 µg/mL does not fall below 10%; assign -1 whenever it does.

>>> group("Cn1c(N2CCN(CCCOc3ccc([N+](=O)[O-])cc3C(=O)c3ccccc3)CC2)cc(=O)n(C)c1=O [Compound 80, oxalate]")
1
>>> group("Cn1c(NCCN2CCN(c3ccc([N+](=O)[O-])cc3)CC2)cc(=O)n(C)c1=O [Compound 64, oxalate]")
1
>>> group("Cn1c(N2CCN(CCCc3ccc(C(=O)c4ccccc4)cc3[N+](=O)[O-])CC2)cc(=O)n(C)c1=O [Compound 136, hydrochloride]")
1
>>> group("Cn1c(N2CCN(CCOc3ccc([N+](=O)[O-])cc3C(=O)c3ccccc3)CC2)cc(=O)n(C)c1=O")
-1
>>> group("Cn1c(N2CCN(CCCOc3cc([N+](=O)[O-])ccc3O)CC2)cc(=O)n(C)c1=O [Compound 145, hydrochloride]")
-1
>>> group("Cn1c(N2CCN(CC(=O)c3ccc([N+](=O)[O-])cc3)CC2)cc(=O)n(C)c1=O [Compound 42, hydrochloride]")
-1
>>> group("Cn1c(N2CCN(CCc3ccc([N+](=O)[O-])cc3)CC2)cc(=O)n(C)c1=O [Compound 14, hydrochloride]")
1
>>> group("Cn1c(N2CCN(CCCOc3ccc([N+](=O)[O-])cc3C(=O)c3ccccc3Cl)CC2)cc(=O)n(C)c1=O")
1
>>> group("COC(=O)CN(CCCNc1ccc([N+](=O)[O-])cc1)CCNc1cc(=O)n(C)c(=O)n1C [Compound 166, hydrochloride]")
-1
>>> group("CCN(CCCNc1ccc([N+](=O)[O-])cc1)CCNc1cc(=O)n(C)c(=O)n1C [Compound 73, hydrochloride]")
-1
>>> group("CCN(CCNc1cc(=O)n(C)c(=O)n1C)CCc1ccc([N+](=O)[O-])cc1")
1
>>> group("Cn1c(N2CCN(CC(=O)Nc3ccc([N+](=O)[O-])cc3)CC2)cc(=O)n(C)c1=O")
-1
>>> group("Cn1c(NCCN(CCO)CCCc2ccc([N+](=O)[O-])cc2)cc(=O)n(C)c1=O")
1
>>> group("Cn1c(N2CCN(CCCOc3ccc(C(=O)c4ccccc4)cc3[N+](=O)[O-])CC2)cc(=O)n(C)c1=O [Compound 78, oxalate]")
1
>>> group("Cn1c(N2CCN(CCCOc3ccc([N+](=O)[O-])cc3N)CC2)cc(=O)n(C)c1=O [Compound 153, oxalate]")
1
>>> group("Cn1c(N2CCN(CCCOc3ccc([N+](=O)[O-])cc3Cl)CC2)cc(=O)n(C)c1=O [Compound 141, hydrochloride]")
1
>>> group("CSc1ccc(OCCCN2CCN(c3cc(=O)n(C)c(=O)n3C)CC2)c([N+](=O)[O-])c1 [Compound 147, hydrochloride]")
1
>>> group("C=CCOc1cc([N+](=O)[O-])ccc1OCCCN1CCN(c2cc(=O)n(C)c(=O)n2C)CC1 [Compound 161, hydrochloride]")
1
>>> group("CCN(CCNc1ccc([N+](=O)[O-])cc1)CCNc1cc(=O)n(C)c(=O)n1C [Compound 71, oxalate]")
-1
>>> group("CC(C)NC[C@@H](O)c1ccc(NS(C)(=O)=O)cc1 [d-sotalol, reference compound]")
-1
>>> group("Cn1c(N2CCN(CCCOc3ccc(Cl)cc3[N+](=O)[O-])CC2)cc(=O)n(C)c1=O [Compound 140, hydrochloride]")
-1
>>> group("CC(=O)c1ccc(OCCN2CCN(c3cc(=O)n(C)c(=O)n3C)CC2)c([N+](=O)[O-])c1")
-1
>>> group("COC(=O)c1ccc(OCCCN2CCN(c3cc(=O)n(C)c(=O)n3C)CC2)c([N+](=O)[O-])c1 [Compound 154, oxalate]")
-1
>>> group("Cn1c(NCCN(CCCc2ccc([N+](=O)[O-])cc2)CCOC(=O)c2ccccc2)cc(=O)n(C)c1=O [Compound 168, oxalate]")
1
>>> group("COCCN(CCCc1ccc([N+](=O)[O-])cc1)CCNc1cc(=O)n(C)c(=O)n1C [Compound 171, oxalate]")
1
>>> group("CC(=O)OCCN(CCCc1ccc([N+](=O)[O-])cc1)CCNc1cc(=O)n(C)c(=O)n1C [Compound 167, oxalate]")
1
>>> group("CC(=O)c1cc([N+](=O)[O-])ccc1OCCCN1CCN(c2cc(=O)n(C)c(=O)n2C)CC1 [Compound 76, oxalate]")
1
>>> group("Cn1c(N2CCN(CCCc3ccc([N+](=O)[O-])cc3)CC2)cc(=O)n(C)c1=O [Compound 33, oxalate]")
1

Origin of the recorded values: patent US5008267A
